test_system: T1, ANTIBODY EXPRESSION CONTROL
T1 construct: also called mouse anti-canine antibody (capture reagent of the expression control ELISA)
assay_method_text: SPR Biacore, expression control
endpoint: kon (M⁻¹ s⁻¹)
Please state the figure in M⁻¹ s⁻¹; there is no need to write the unit.

binder | kon, M⁻¹ s⁻¹
Mu_09E09_VH (SEQ ID NO: 35)_T102A (antibody, V domains shown) VH: DVKLVESGEGLVKPGGSLKLSCAASGFTFSSYAMSWVRQTPEKRLEWVAYISSGGDYIYYADTVKGRFTISRDNARNTLYLQMSSLKSEDTAMYYCTRDPIAGTFAYWGQGTLVTVSA VL: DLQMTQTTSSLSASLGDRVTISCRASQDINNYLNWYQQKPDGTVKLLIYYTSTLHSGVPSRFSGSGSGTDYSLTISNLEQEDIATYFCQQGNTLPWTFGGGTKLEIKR | 311000

Prompt line: What value of kon has been recorded for this entry: Mu_19F07_VL (SEQ ID NO: 49)_Q90A (antibody, V domains shown) VH: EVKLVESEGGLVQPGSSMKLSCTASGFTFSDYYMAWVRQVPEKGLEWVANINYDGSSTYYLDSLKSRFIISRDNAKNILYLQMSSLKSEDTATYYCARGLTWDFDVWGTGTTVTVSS VL: DIVMTQSHKFMSPSVGDRVSITCKASQDVDTAVAWYQQKPGQSPKLLIYLASTRHTGVPDRFTGSGSGTDFTLTISNVQSEDLADYFCQAYSRFPLTFGAGTKLELKR
Response line: 329000

Prompt line: Quick one: Mu_02D09_VH (SEQ ID NO: 31)_Y101A (antibody, V domains shown) VH: EVQLVESGGGLVKPGGSLTLSCAASGFTFSDYGMHWLRQAPEKGLEWVAYISSGSRAVFFADTVKGRFTISRDNAKNTLFLQMTSLRSDDTAMYYCARDRADGRGFAYWGQGTLVTVSA VL: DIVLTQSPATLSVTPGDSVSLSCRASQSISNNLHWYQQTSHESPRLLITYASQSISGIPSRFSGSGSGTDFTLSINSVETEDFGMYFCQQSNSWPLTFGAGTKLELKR
Response line: 147000
